Sourced from PubChem BioAssay AID1963436

System: OVCAR-5 complex spheroid (HUVEC/MSC), viability % T/C
Procedure Summary: Anticancer human tumor OVCAR-5 cell line growth inhibition [Asc];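 also: spheroids exposed to agents for 7 days before readout; 100% = DMSO vehicle-treated wells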
Settings: second compound 0.0316 µM; first compound 0.316 µM; active compounds read low
Excerpt: Multicellular complex tumor spheroid response to apoptosis pathway targeting inhibitors Alrizomadlin, Pelcitoclax, and Dasminapant in combination with a variety of drugs and investigational agents in selected tumor cell lines […] Compounds. […] If the clinical Cmax for an agent had not been determined, the highest concentration tested was 10 microM. […]
viability, T/C reference
Dear colleague, please return just the value in %, with no unit written.

Example entries and their recorded answers appear below.
>  <Compound>
C=C(F)C(=O)N1CCN(c2nc(OCC3CCCN3C)nc3c2CCN(c2cccc4cccc(Cl)c24)C3)CC1CC#N (stereo not given) + CNC(C)C(=O)NC1CN(S(=O)(=O)c2cccc(S(=O)(=O)N3CCC4CCC(C(=O)NC(c5ccccc5)c5ccccc5)N4C(=O)C(NC(=O)C(C)NC)C3)c2)CCC2CCC(C(=O)NC(c3ccccc3)c3ccccc3)N2C1=O

>  <Recorded Number>
79

$$$$
>  <Compound>
O=C(c1cc(Cc2n[nH]c(=O)c3ccccc23)ccc1F)N1CCN(C(=O)C2CC2)CC1 + CNC(C)C(=O)NC1CN(S(=O)(=O)c2cccc(S(=O)(=O)N3CCC4CCC(C(=O)NC(c5ccccc5)c5ccccc5)N4C(=O)C(NC(=O)C(C)NC)C3)c2)CCC2CCC(C(=O)NC(c3ccccc3)c3ccccc3)N2C1=O

>  <Recorded Number>
81.7

$$$$
>  <Compound>
C#Cc1c(F)ccc2cc(O)cc(-c3ncc4c(N5CC6CCC(C5)N6)nc(OCC56CCCN5CC(F)C6)nc4c3F)c12 (stereo not given) + CNC(C)C(=O)NC1CN(S(=O)(=O)c2cccc(S(=O)(=O)N3CCC4CCC(C(=O)NC(c5ccccc5)c5ccccc5)N4C(=O)C(NC(=O)C(C)NC)C3)c2)CCC2CCC(C(=O)NC(c3ccccc3)c3ccccc3)N2C1=O

>  <Recorded Number>
91.8

$$$$

viability, T/C reading for O=C(c1ccc(F)c(F)c1Nc1ccc(I)cc1F)N1CC(O)([C@@H]2CCCCN2)C1 + CNC(C)C(=O)NC1CN(S(=O)(=O)c2cccc(S(=O)(=O)N3CCC4CCC(C(=O)NC(c5ccccc5)c5ccccc5)N4C(=O)C(NC(=O)C(C)NC)C3)c2)CCC2CCC(C(=O)NC(c3ccccc3)c3ccccc3)N2C1=O : 36.7

viability, T/C reading for COc1c(OCCCN2CCOCC2)ccc2c3n(c(=NC(=O)c4cnc(N)nc4)nc12)CCN3 + CNC(C)C(=O)NC1CN(S(=O)(=O)c2cccc(S(=O)(=O)N3CCC4CCC(C(=O)NC(c5ccccc5)c5ccccc5)N4C(=O)C(NC(=O)C(C)NC)C3)c2)CCC2CCC(C(=O)NC(c3ccccc3)c3ccccc3)N2C1=O : 17.6
